# assay_info: SPECT/CT biodistribution and tumor dosimetry of 177Lu-labeled tracers in HEK-FAP tumor-bearing mice
# Assay type: in vivo, mouse
# measurement_context: mouse, in vivo, iv, 72 h p.i., 30 MBq IV, HEK-FAP mice, n=3; read-out: tumor uptake
parameter: tissue uptake at 72 h (%ID/g)

CCCCCC(=O)N[C@H]1CSCc2cc(CSCCNC(=O)CN3CCN(CC(=O)O)CCN(CC(=O)O)CCN(CC(=O)O)CC3)cc(c2)CSC[C@@H](C(=O)O)NC(=O)[C@H](Cc2ccccc2)NC(=O)[C@H](CCC(N)=O)NC(=O)[C@H]([C@@H](C)O)NC(=O)[C@@H]2CCCN2C(=O)[C@@H]2CCCN2C1=O [^177Lu-FAP-2286, metal not drawn]; 16.4

---

# assay_info: SPECT/CT biodistribution of 111In-labeled tracers in HEK-FAP tumor-bearing mice
# Assay type: in vivo, mouse
# measurement_context: mouse, in vivo, iv, 48 h p.i., 30 MBq IV, HEK-FAP mice, n=9; read-out: Tumor %ID/g (mean ± SD)
parameter: tissue uptake at 48 h (%ID/g)

CCCCCC(=O)N[C@H]1CSCc2cc(CSCCNC(=O)CN3CCN(CC(=O)O)CCN(CC(=O)O)CCN(CC(=O)O)CC3)cc(c2)CSC[C@@H](C(=O)O)NC(=O)[C@H](Cc2ccccc2)NC(=O)[C@H](CCC(N)=O)NC(=O)[C@H]([C@@H](C)O)NC(=O)[C@@H]2CCCN2C(=O)[C@@H]2CCCN2C1=O [^111In-FAP-2286, metal not drawn]; 9.1

---

# assay_info: SPECT/CT biodistribution of 111In-labeled tracers in HEK-FAP tumor-bearing mice
# Type: in vivo, mouse
# measurement_context: mouse, in vivo, non-tumor bearing shoulder, 1 h p.i.; read-out: Shoulder %ID/g (mean ± SD)
# Experimental: HEK-FAP cell line was generated using the vector pTAR to insert FAP complementary DNA by recombinase-mediated cassette exchange into the pre-tagged HEK293 cells (InSCREENeX). […] Thirty megabecquerels (30 MBq/nmol) ^111In-FAP-2286 (n = 9) or ^111In-FAPI-04 (n = 6) was injected intravenously (IV) into HEK-FAP tumor-bearing mice and the distribution of the radiotracers was assessed using the NanoSPECT/computed tomography (CT) system (Mediso). […]
parameter: tissue uptake at 1 h

CCCCCC(=O)N[C@H]1CSCc2cc(CSCCNC(=O)CN3CCN(CC(=O)O)CCN(CC(=O)O)CCN(CC(=O)O)CC3)cc(c2)CSC[C@@H](C(=O)O)NC(=O)[C@H](Cc2ccccc2)NC(=O)[C@H](CCC(N)=O)NC(=O)[C@H]([C@@H](C)O)NC(=O)[C@@H]2CCCN2C(=O)[C@@H]2CCCN2C1=O [^111In-FAP-2286, metal not drawn]; 1.2 %ID/g

---

# assay_info: SPECT/CT biodistribution of 111In-labeled tracers in HEK-FAP tumor-bearing mice
# Type: in vivo, mouse
# measurement_context: mouse, in vivo, iv, 24 h p.i., 30 MBq IV, HEK-FAP mice; read-out: Kidney %ID/g (mean ± SD)
# Experimental: HEK-FAP cell line was generated using the vector pTAR to insert FAP complementary DNA by recombinase-mediated cassette exchange into the pre-tagged HEK293 cells (InSCREENeX). […] Thirty megabecquerels (30 MBq/nmol) ^111In-FAP-2286 (n = 9) or ^111In-FAPI-04 (n = 6) was injected intravenously (IV) into HEK-FAP tumor-bearing mice and the distribution of the radiotracers was assessed using the NanoSPECT/computed tomography (CT) system (Mediso). […]
parameter: tissue uptake at 24 h (%ID/g)

CCCCCC(=O)N[C@H]1CSCc2cc(CSCCNC(=O)CN3CCN(CC(=O)O)CCN(CC(=O)O)CCN(CC(=O)O)CC3)cc(c2)CSC[C@@H](C(=O)O)NC(=O)[C@H](Cc2ccccc2)NC(=O)[C@H](CCC(N)=O)NC(=O)[C@H]([C@@H](C)O)NC(=O)[C@@H]2CCCN2C(=O)[C@@H]2CCCN2C1=O [^111In-FAP-2286, metal not drawn]; 1.6

This collection of values is drawn from paper PMC9399058.
